- PROTOCOL TEXT: AUC (0-infinity) in rat at 10 mg/kg, po
- Assay type: ADME, organism-based
- Set-up: time infinity, dose 10 mg/kg, route oral
- TEST CONDITIONS: plasma

# COMPOUND SMILES, AUC(0-inf) / ng·h/mL
rows = [
    ("Cc1coc2ccc(N3C[C@@]4(CN5CCC4CC5)OC3=O)cc12", 225),
]

----------
- PROTOCOL TEXT: Half life in monkey at 10 mg/kg, po
- Format: ADME, organism-based, Macaca mulatta
- Set-up: dose 10 mg/kg, route oral
- TEST CONDITIONS: rhesus monkey, in vivo
RECORDED METRIC: half-life (h)

# COMPOUND SMILES, DATA VALUE
data = [
    ("Cc1coc2ccc(N3C[C@@]4(CN5CCC4CC5)OC3=O)cc12", 6),
]

----------
- PROTOCOL TEXT: Tmax in monkey at 1 mg/kg, po
- Type: ADME, organism-based, Macaca mulatta
- Parameters: dose 1 mg/kg, route oral
- TEST CONDITIONS: rhesus monkey, in vivo

# COMPOUND SMILES, UNIT TEXT, Tmax
rows = [
    ("Cc1coc2ccc(N3C[C@@]4(CN5CCC4CC5)OC3=O)cc12", "h", 2),
]

----------
- SYSTEM UNDER TEST: Neuronal acetylcholine receptor subunit alpha-7 (Rattus norvegicus)
- Sequence (Q05941 whole entry): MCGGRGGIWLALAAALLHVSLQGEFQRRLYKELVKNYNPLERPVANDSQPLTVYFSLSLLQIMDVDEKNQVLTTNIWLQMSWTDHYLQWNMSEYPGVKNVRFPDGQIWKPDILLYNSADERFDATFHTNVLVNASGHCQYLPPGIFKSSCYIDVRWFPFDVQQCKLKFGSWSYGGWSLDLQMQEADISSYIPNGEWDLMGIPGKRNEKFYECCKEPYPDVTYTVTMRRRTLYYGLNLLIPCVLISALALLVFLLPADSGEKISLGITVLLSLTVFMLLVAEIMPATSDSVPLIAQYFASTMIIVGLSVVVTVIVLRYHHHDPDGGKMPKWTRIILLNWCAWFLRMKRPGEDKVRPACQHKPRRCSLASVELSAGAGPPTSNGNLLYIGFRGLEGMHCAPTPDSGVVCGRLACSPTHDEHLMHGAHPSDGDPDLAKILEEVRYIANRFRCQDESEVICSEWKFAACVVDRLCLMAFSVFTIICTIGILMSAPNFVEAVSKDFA
- PROTOCOL TEXT: Displacement of [125I]alpha-BTX from alpha-7 nAChR in rat hippocampus membrane
pKi: −log10 of the molar value.
Kindly return rule met if reported pKi is no lower than 8; return rule not met if it is lower.

# COMPOUND SMILES, CLASS
rows = [
    ("O=C1O[C@@]2(CN3CCC2CC3)CN1c1ccc2occ(Br)c2c1", "rule met"),
    ("O=C1O[C@]2(CN3CCC2CC3)CN1c1ccc2c(c1)OCCO2", "rule not met"),
    ("Cc1oc2ccc(N3C[C@]4(CN5CCC4CC5)OC3=O)cc2c1C", "rule met"),
    ("O=C1O[C@@]2(CN3CCC2CC3)CN1c1ccc2c(c1)CCC2", "rule not met"),
    ("Cc1coc2ccc(N3C[C@@]4(CN5CCC4CC5)OC3=O)cc12", "rule met"),
    ("O=C1O[C@]2(CN3CCC2CC3)CN1c1ccc2sc(Cl)cc2c1", "rule not met"),
    ("O=C1O[C@]2(CN3CCC2CC3)CN1c1ccc2sccc2c1", "rule not met"),
    ("O=C1O[C@]2(CN3CCC2CC3)CN1c1ccc2occc2c1", "rule not met"),
    ("Cc1nc2cc(N3C[C@@]4(CN5CCC4CC5)OC3=O)ccc2s1", "rule not met"),
    ("O=C1O[C@]2(CN3CCC2CC3)CN1c1ccc2c(c1)OCC2", "rule not met"),
    ("CCc1cc2cc(N3C[C@@]4(CN5CCC4CC5)OC3=O)ccc2s1", "rule not met"),
    ("O=C1O[C@]2(CN3CCC2CC3)CN1c1ccc2c(c1)CCO2", "rule not met"),
    ("O=C1O[C@@]2(CN3CCC2CC3)CN1c1ccc(Br)s1", "rule met"),
    ("O=C1O[C@]2(CN3CCC2CC3)CN1c1ccc2c(c1)OCO2", "rule not met"),
    ("O=C1O[C@]2(CN3CCC2CC3)CN1c1ccc2ccoc2c1", "rule not met"),
    ("Cc1cc2cc(N3C[C@@]4(CN5CCC4CC5)OC3=O)ccc2o1", "rule not met"),
]

----------
- PROTOCOL TEXT: AUC (0-infinity) in monkey at 3 mg/kg, po
- Format: ADME, organism-based, Macaca mulatta
- Design: time infinity, dose 3 mg/kg, route oral
- TEST CONDITIONS: rhesus monkey, plasma

# COMPOUND SMILES, AUC(0-inf)
data = [
    ("Cc1coc2ccc(N3C[C@@]4(CN5CCC4CC5)OC3=O)cc12", "387 ng·h/mL"),
]

----------
Observed IC50 for Cytochrome P450 2D6 (Homo sapiens), reported per entry below.

# COMPOUND SMILES, IC50
data = [
    ("O=C1O[C@]2(CN3CCC2CC3)CN1c1ccc2occc2c1", "> 30 µM"),
    ("O=C1O[C@@]2(CN3CCC2CC3)CN1c1ccc2occ(Br)c2c1", "> 30 µM"),
    ("O=C1O[C@]2(CN3CCC2CC3)CN1c1ccc2sc(Cl)cc2c1", "> 30 µM"),
    ("O=C1O[C@]2(CN3CCC2CC3)CN1c1ccc(Cl)s1", "2 µM"),
    ("CCc1coc2ccc(N3C[C@@]4(CN5CCC4CC5)OC3=O)cc12", "21 µM"),
    ("O=C1O[C@]2(CN3CCC2CC3)CN1c1ccc2c(c1)OCO2", "> 30 µM"),
    ("O=C1O[C@]2(CN3CCC2CC3)CN1c1ccc2sccc2c1", "> 30 µM"),
    ("Cc1coc2ccc(N3C[C@@]4(CN5CCC4CC5)OC3=O)cc12", "> 30 µM"),
    ("Cc1cc2cc(N3C[C@@]4(CN5CCC4CC5)OC3=O)ccc2o1", "> 30 µM"),
    ("O=C1O[C@@]2(CN3CCC2CC3)CN1c1ccc(Br)s1", "9 µM"),
    ("Cc1oc2ccc(N3C[C@]4(CN5CCC4CC5)OC3=O)cc2c1C", "> 30 µM"),
    ("Cc1cc2cc(N3C[C@@]4(CN5CCC4CC5)OC3=O)ccc2s1", "> 30 µM"),
    ("CCc1cc2cc(N3C[C@@]4(CN5CCC4CC5)OC3=O)ccc2s1", "> 30 µM"),
]

----------
- PROTOCOL TEXT: Oral bioavailability in rat at 30 mg/kg, po
- Format: ADME, organism-based
- TEST CONDITIONS: in vivo

# COMPOUND SMILES, bioavailability, %
measured = [
    ("Cc1coc2ccc(N3C[C@@]4(CN5CCC4CC5)OC3=O)cc12", 17.3),
]

----------
- PROTOCOL TEXT: Clearance in rat at 3 mg/kg, iv
- Assay type: ADME, organism-based
- Design: dose 3 mg/kg, route intravenous
- TEST CONDITIONS: in vivo

# COMPOUND SMILES, clearance (mL/min/kg)
rows = [
    ("Cc1coc2ccc(N3C[C@@]4(CN5CCC4CC5)OC3=O)cc12", 83.3),
]

----------
- PROTOCOL TEXT: Cmax in monkey at 1 mg/kg, po
- Assay type: ADME, organism-based, Macaca mulatta
- Parameters: dose 1 mg/kg, route oral
- TEST CONDITIONS: rhesus monkey, in vivo
RECORDED METRIC: Cmax (ng/mL)

# COMPOUND SMILES, UNIT TEXT, DATA VALUE
data = [
    ("Cc1coc2ccc(N3C[C@@]4(CN5CCC4CC5)OC3=O)cc12", "ng/mL", 9.1),
]

----------
- PROTOCOL TEXT: Cmax in monkey at 3 mg/kg, po
- Format: ADME, organism-based, Macaca mulatta
- Design: dose 3 mg/kg, route oral
- TEST CONDITIONS: rhesus monkey, in vivo

# COMPOUND SMILES, Cmax
records = [
    ("Cc1coc2ccc(N3C[C@@]4(CN5CCC4CC5)OC3=O)cc12", "75.5 ng/mL"),
]

----------
- PROTOCOL TEXT: Half life in monkey at 3 mg/kg, po
- Format: ADME, organism-based, Macaca mulatta
- Parameters: dose 3 mg/kg, route oral
- TEST CONDITIONS: rhesus monkey, in vivo

# COMPOUND SMILES, UNIT TEXT, half-life
measured = [
    ("Cc1coc2ccc(N3C[C@@]4(CN5CCC4CC5)OC3=O)cc12", "h", 5.4),
]

----------
- PROTOCOL TEXT: Volume of distribution in monkey at 3 mg/kg, iv
- Type: ADME, organism-based, Macaca mulatta
- Parameters: dose 3 mg/kg, route intravenous
- TEST CONDITIONS: rhesus monkey, in vivo, read-out: Vss

# COMPOUND SMILES, Vd
rows = [
    ("Cc1coc2ccc(N3C[C@@]4(CN5CCC4CC5)OC3=O)cc12", "10.7 L/kg"),
]

----------
- SYSTEM UNDER TEST: Histamine H3 receptor (Homo sapiens)
- Sequence (Q9Y5N1 whole entry): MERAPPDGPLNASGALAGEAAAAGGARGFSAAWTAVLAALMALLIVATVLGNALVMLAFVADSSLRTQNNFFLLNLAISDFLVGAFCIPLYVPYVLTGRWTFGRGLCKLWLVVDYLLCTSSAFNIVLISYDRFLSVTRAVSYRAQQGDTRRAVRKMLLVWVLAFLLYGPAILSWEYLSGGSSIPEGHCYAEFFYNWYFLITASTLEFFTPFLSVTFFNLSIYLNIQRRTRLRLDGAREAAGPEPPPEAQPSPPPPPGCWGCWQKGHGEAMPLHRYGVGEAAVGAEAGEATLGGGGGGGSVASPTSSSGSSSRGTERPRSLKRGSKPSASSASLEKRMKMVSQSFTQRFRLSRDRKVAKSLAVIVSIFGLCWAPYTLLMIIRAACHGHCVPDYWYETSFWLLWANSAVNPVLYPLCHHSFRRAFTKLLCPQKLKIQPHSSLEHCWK

# COMPOUND SMILES, IC50
records = [
    ("Cc1coc2ccc(N3C[C@@]4(CN5CCC4CC5)OC3=O)cc12", "> 10 µM"),
]

----------
- PROTOCOL TEXT: AUC (0-infinity) in monkey at 10 mg/kg, po
- Assay type: ADME, organism-based, Macaca mulatta
- Parameters: time infinity, dose 10 mg/kg, route oral
- TEST CONDITIONS: rhesus monkey, plasma

# COMPOUND SMILES, AUC(0-inf)
data = [
    ("Cc1coc2ccc(N3C[C@@]4(CN5CCC4CC5)OC3=O)cc12", "2020 ng·h/mL"),
]
